Values from ChEMBL document CHEMBL3232922

Method: Volume of distribution at steady state in beagle dog at 2 mg/kg, iv
Assay type: ADME, organism-based, Canis lupus familiaris
Design: dose 2 mg/kg, route intravenous
Condition Label: in vivo, read-out: Vdss
Entries and their Vd values follow.
Answer format: numeric, L/kg implied, no suffix.

CC(C)c1cc(N2CC[C@@H](N)C2)nc(N)n1 [JNJ-39758979]: 19.9
CN[C@@H]1CCN(c2cc(Cc3ccccc3)nc(N)n2)C1: 15.1

Here's the next entry for you.
State the recorded Vd for this entry: `Nc1nc(C2CCCC2)cc(N2CCNCC2)n1`
24.4

---

System Name: UniProtKB Q9H3N8
Sequence (Q9H3N8 whole entry): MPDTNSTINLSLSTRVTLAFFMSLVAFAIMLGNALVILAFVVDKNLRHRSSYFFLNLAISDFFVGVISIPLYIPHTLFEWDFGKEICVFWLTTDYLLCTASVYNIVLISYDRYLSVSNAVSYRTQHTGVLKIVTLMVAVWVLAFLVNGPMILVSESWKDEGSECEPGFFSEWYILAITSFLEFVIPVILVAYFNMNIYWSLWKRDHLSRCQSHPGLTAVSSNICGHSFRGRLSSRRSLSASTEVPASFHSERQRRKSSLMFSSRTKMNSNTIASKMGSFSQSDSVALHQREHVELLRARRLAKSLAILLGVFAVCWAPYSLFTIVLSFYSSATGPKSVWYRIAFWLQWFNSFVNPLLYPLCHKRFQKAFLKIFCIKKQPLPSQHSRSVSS
Method: Displacement of [3H]histamine from human recombinant histamine H4 receptor expressed in SK-N-MC cells after 45 mins by competition binding analysis
The following ranges of Ki define the classes used here: group 1 (below 3 nM), group 2 (3 nM to below 20 nM), group 3 (20 nM or more)

Illustrative cases are given below, each with its answer.
Nc1nc(C2CCCC2)cc(N2C[C@@H]3NCCO[C@@H]3C2)n1 (relative stereo): group 3
CN1CCN(c2ncnc3c2oc2ccc(Cl)cc23)CC1: group 2

Which of the defined bands does the recorded Ki of Nc1nc(C2CCCC2)cc(N2CCC3(CCCN3)C2)n1 (configuration not stated) sit within?
group 2
